IC50: recorded values
target: Sodium-dependent dopamine transporter (Homo sapiens); assay: Displacement of [125I]RTI-55 from human DAT expressed in HEK293 cells
Sequence (Q01959 whole entry): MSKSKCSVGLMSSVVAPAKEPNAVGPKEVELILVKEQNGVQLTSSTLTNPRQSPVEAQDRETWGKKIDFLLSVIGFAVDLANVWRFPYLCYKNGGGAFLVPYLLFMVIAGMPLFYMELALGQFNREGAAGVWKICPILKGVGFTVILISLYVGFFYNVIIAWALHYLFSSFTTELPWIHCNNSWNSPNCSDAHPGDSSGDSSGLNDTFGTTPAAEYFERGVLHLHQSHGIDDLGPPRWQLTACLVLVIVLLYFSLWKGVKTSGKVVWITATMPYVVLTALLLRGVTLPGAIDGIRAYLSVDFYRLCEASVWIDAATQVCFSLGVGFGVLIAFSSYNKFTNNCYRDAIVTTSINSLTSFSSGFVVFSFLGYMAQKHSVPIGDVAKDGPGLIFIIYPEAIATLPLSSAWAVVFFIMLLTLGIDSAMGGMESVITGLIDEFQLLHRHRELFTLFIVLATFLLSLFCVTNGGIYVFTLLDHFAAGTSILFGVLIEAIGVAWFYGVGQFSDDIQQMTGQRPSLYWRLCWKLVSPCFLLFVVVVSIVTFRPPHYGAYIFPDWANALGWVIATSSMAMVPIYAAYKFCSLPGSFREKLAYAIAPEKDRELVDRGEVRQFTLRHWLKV
Numbers only; they are read as nM.

Examples from the recorded data:
>>> reported_result("CN(C)C1CC=C(c2c[nH]c3ccc(C#N)cc23)CC1 (stereo not drawn)")
97
>>> reported_result("CN(C)[C@@H]1CC=C(c2c[nH]c3ccc(C#N)cc23)CC1")
80

Q) Note down IC50 recorded for "CN(C)[C@H]1CC=C(c2c[nH]c3ccc(C#N)cc23)CC1"
A) 290
